Numbers sourced from ChEMBL document CHEMBL1157320.

assay: Cytotoxicity against rat WB-F344 cells assessed as cell survival rate at 0.1 mM by MTT method relative to control; assay type: cell-based; conditions: read-out: Activity
molecules and their reported viability at 100 µM
Reply with just the number (in %).

Observe how each entry below is paired with its result.
CC1=C2C/C=C(\CO[C@@H]3O[C@H](CO[C@@H]4OC[C@](O)(CO)[C@H]4O)[C@@H](O)[C@H](O)[C@H]3O)CC/C=C(\C)C[C@@H]2OC1=O [SARCAGLABOSIDE E]: 42.4
CC1=C2C[C@@H]3[C@@](C)(C=C2OC1=O)[C@@H]1C[C@@H]1[C@]3(O)CO[C@@H]1O[C@H](CO)[C@@H](O)[C@H](O)[C@H]1O [CHLORANOSIDE A]: 54.5
C=C1CC[C@H](O[C@@H]2O[C@H](CO)[C@@H](O)[C@H](O)[C@H]2O)[C@]2(C)C[C@@H]3OC(=O)C(C)=C3C[C@@H]12 [SARCAGLABOSIDE A]: 47.5
C=C[C@]1(C)C[C@@H]2OC(=O)C(C)=C2C[C@H]1C(=C)CO[C@@H]1O[C@H](CO[C@@H]2OC[C@](O)(CO)[C@H]2O)[C@@H](O)[C@H](O)[C@H]1O [SARCAGLABOSIDE D]: 46.3

Record COC(=O)c1cc(OC)c2c(c1-c1c(CO)cc(OC)c3c1OCO3)OCO2 . Reported viability at 100 µM: 46.6

Record C=C1C=C[C@H](O[C@@H]2O[C@H](CO)[C@@H](O)[C@H](O)[C@H]2O)[C@]2(C)C[C@@H]3OC(=O)C(C)=C3C[C@@H]12 [SARCAGLABOSIDE B] . Reported viability at 100 µM: 74.9

Record C=C[C@]1(C)C[C@@H]2OC(=O)C(C)=C2C[C@H]1C(=C)CO[C@@H]1O[C@H](CO)[C@@H](O)[C@H](O)[C@H]1O [SARCAGLABOSIDE C] . Reported viability at 100 µM: 53

Record C=C1[C@H]2C[C@H]2[C@]2(C)[C@H](O)[C@]3(O[C@@H]4O[C@H](CO)[C@@H](O)[C@H](O)[C@H]4O)OC(=O)C(C)=C3C[C@@H]12 . Reported viability at 100 µM: 45.5
